Reference for the values: ChEMBL document CHEMBL3875163

Recorded MIC50 for the following compounds
- Tested on: Pseudomonas aeruginosa
- experimental-details: Antibacterial activity against multi-drug resistant Pseudomonas aeruginosa MFBF after 18 hrs by serial microdilution broth assay
- Assay type: functional
Numbers only; they are read as mg/L.

[
  {
    "compound": "COc1cc(NC(C)CCCNC(=O)Nc2ccc(C(F)(F)F)cc2)c2ncccc2c1 (stereo unspecified)",
    "MIC50 [mg/L]": 150
  },
  {
    "compound": "COc1cc(NC(C)CCCN)c2ncccc2c1 (stereo unspecified)",
    "MIC50 [mg/L]": 70
  },
  {
    "compound": "COc1cc(NC(C)CCCNC(=O)Nc2ccc(Br)cc2)c2ncccc2c1 (stereo unspecified)",
    "MIC50 [mg/L]": 100
  }
]

We now examine a further compound.
Reported MIC50 ( COc1cc(NC(C)CCCNC(=O)Nc2cccc(O)c2)c2ncccc2c1 (stereo unspecified) ) = 100
